study_system: T1, human ST2L extracellular domain with C-terminal His6 tag (human, UniProt Q01638 19-328)
T1 construct: also called huST2L-ECD; ST2L-ECD
T1 sequence: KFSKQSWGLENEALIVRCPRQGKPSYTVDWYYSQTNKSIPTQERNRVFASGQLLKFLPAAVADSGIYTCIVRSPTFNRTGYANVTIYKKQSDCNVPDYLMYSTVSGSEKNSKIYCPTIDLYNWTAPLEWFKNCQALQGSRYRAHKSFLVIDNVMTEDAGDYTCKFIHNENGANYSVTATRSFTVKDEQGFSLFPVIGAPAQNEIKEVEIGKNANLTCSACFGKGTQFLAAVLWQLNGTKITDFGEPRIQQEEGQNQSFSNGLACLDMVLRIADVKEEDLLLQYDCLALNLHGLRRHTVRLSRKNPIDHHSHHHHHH
assay_method_text: ProteOn SPR, mAb captured, ST2L-ECD in solution
Method: The affinities were analyzed by ProteOn. The experiments were performed at 25° C. using ProteOn's PBS-T-E buffer (PBS, 0.005% P20 and 3 mM EDTA) as running buffer. […] Mab capture was followed by injection of ST2L-ECD from 0.024-15 nM (5-fold dilutions) for 4 min (200 μL at 50 μL/min). The dissociation was monitored for 30 minutes for all reaction. Regeneration was performed using two 15 sec pulses of 10 mM glycine pH1.5. The data was fitted to a 1:1 with baseline drift model. […]
measurement_name: koff (s⁻¹)
Numeric only. Scale: s⁻¹

STLM205 (antibody, V domains shown, C2494 HFA mAb: VH STLH194 + VL STLL272 (O18)) VH: EVQLVQSGAEVKKPGATVKISCKVSAFNIKDDYMHWVQQAPGKGLEWMGRIDPAIGNTEYAEKFQGRVTITADTSTDTAYMELSSLRSEDTAVYYCATGDFYAMDYWGQGTLVTVSS VL: DIQMTQSPSSLSASVGDRVTITCITNTDIDDVIHWYQQKPGKAPKLLIYEGNTLRPGVPSRFSGSGSGTDFTFTISSLQPEDIATYYCLQSDNMLTFGQGTKLEIK :: 0.000695
STLM195 (antibody, V domains shown, C2494 HFA mAb: VH STLH195 + VL STLL272 (O18)) VH: QVQLVQSGAEVKKPGASVKVSCKVSAFNIKDDYMHWVRQAPGKGLEWMGRIDPAIGNTEYAPKFQDRVTMTEDTSTDTAYMELSSLRSEDTAVYYCATGDFYAMDYWGQGTLVTVSS VL: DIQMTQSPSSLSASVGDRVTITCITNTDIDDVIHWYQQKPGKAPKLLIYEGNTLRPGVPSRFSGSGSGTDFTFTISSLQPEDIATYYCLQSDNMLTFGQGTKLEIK :: 0.00673
STLM202 (antibody, V domains shown, C2494 HFA mAb: VH STLH194 + VL STLL275 (L5)) VH: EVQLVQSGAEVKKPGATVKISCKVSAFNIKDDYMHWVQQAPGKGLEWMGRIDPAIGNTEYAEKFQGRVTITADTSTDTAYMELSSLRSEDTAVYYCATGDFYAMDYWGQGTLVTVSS VL: DIQMTQSPSSVSASVGDRVTITCITNTDIDDVIHWYQQKPGKAPKLLIYEGNTLRPGVPSRFSGSGSGTDFTLTISSLQPEDFATYYCLQSDNMLTFGQGTKLEIK :: 0.00119

Endpoint output: koff of STLM204 (antibody, V domains shown, C2494 HFA mAb: VH STLH194 + VL STLL273 (A20)) VH: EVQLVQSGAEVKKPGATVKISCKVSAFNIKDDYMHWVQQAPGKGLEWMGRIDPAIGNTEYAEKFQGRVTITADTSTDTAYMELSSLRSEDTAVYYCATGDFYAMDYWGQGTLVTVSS VL: DIQMTQSPSSLSASVGDRVTITCITNTDIDDVIHWYQQKPGKVPKLLIYEGNTLRPGVPSRFSGSGSGTDFTLTISSLQPEDVATYYCLQSDNMLTFGQGTKLEIK . Value? 0.00241
